Test system: A549/ATCC NSCLC
EXPERIMENTAL_DETAILS: NCI-60 one-dose screen, 48 h (100 = growth as untreated, 0 = no growth, -100 = all killed)
RECORDED_CONDITIONS: 10 µM unless noted
About 83,000 compounds went through this panel and 20% of them were active in at least one assay; those are over-represented in the sample as a whole.
Entries and their measured growth follow.
Just the number in %, nothing appended.

1) C/C=C1\SC(=S)NC1=O: 99.7
2) NC(=O)/C=C/C(=O)c1c(Cl)cccc1Cl: -43.1
3) CCC1OC(OC)C=CC1=O (stereo not given): 102
4) N#CSCc1c(Cl)cccc1Cl: 97.6
5) CCC(=O)Sc1ccccc1C(=O)Nc1ccc(Cl)cc1: 76.5

Just so you know, measured growth for O=C1c2ccccc2C(=O)N1c1ccccc1 came out at 90.7

Just so you know, measured growth for N#CSCC(=O)c1ccc(Cl)cc1 came out at 87.1

Just so you know, measured growth for N#CSCc1ccc(Cl)c(CSC#N)c1 came out at 35.5

Just so you know, measured growth for Cn1c2ccccc2c2nnc(N/N=C/c3ccccn3)nc21 came out at 21.1

Just so you know, measured growth for N#CC1C(=O)SC2c3ccccc3C(=O)c3ccccc3C12 (stereo not given) came out at 84.9

Just so you know, measured growth for NC(N)=N/N=C/c1ccc([N+](=O)[O-])o1 came out at 80.2

Data provenance is PubChem BioAssay (NCI).
